Examples of compounds with documented survival follow.
Tested on: Wild type
procedure.text: S. aureus survival, RN4220 and DeltatarO strains – OD600, teichoic acid synthesis inhibitors, primary screen (AID 463173)
measurement.parameters: S. aureus RN4220 wild type/DeltatarO growth, OD600, 18 h, stronger effect = lower value, screened at 18.75 µg/mL (by protocol)
About 1,700 (3.3%) of roughly 52,000 compounds were called active. The sample as a whole holds a higher share of actives than the screen did.
Lab book: enter the figure in %, no units written.

compound	val
CCn1c(CCNC(=O)C2CCCO2)nnc1SC (stereo not given)	94
Cc1ccccc1-c1nc(CN2CCC(C(=O)NCc3ccccc3Cl)CC2)c(C)o1	85
COc1ccc2c(c1)CC(NC(=O)Nc1ccc(NC(C)=O)cc1)CO2 (stereo not given)	121
COc1ccc(C2=NS(=O)(=O)N(C)C(C(=O)NCc3ccccc3)=C2)cc1OC	102
CCCCc1nc2ccccc2n1CC(=O)N(COCC)c1c(C)cccc1CC	-1

# input compound: CC(C)CCNC(=O)CCCN1C(=O)c2ccccc2Sc2ncccc21 ; wanted: its survival
85

Another compound: CCn1c(=O)cc(OCC(=O)N(C)c2ccc(OC)cc2)c2ccccc21
78

Also CCc1cccc(CC)c1N(COC)C(=O)Cn1c(CC)nc2ccccc21 , if possible.
74

Now the compound O=C(Nc1ccc(N2C(=O)C=CC2=O)cc1Cl)c1ccco1
105

Another compound: CCOc1ccc(OCC)c(NS(=O)(=O)c2c(C(=O)N3CCC(C)CC3)c(C)n(C)c2C)c1
0

What about this compound? CC(C)C(=O)Nc1ccc2nc(SCCOc3ccccc3)sc2c1
93

Again, but for CCOc1ccc(NC(=O)Cn2c(=O)n(Cc3ccccc3)c(=O)c3sc4ccccc4c32)cc1
78

Another: Cc1ccc(CN(C(=O)COc2cc(C)c(Cl)c(C)c2)c2ccccn2)o1
78

Continue with CCOC(=O)c1cccc(NC(=O)CCc2c(C)nn(-c3ccc(N4CCCCC4)nn3)c2C)c1
95

###

System: Wild type
procedure.text: S. aureus survival, RN4220 and DeltatarO strains – OD600, teichoic acid synthesis inhibitors, primary screen (AID 463173)
measurement.parameters: S. aureus RN4220 wild type/DeltatarO growth, OD600, 18 h, screened at 18.75 µg/mL (by protocol)
About 1,700 (3.3%) of roughly 52,000 compounds were called active. No stated cut-off is given here; in the data, active means survival mostly below about 52% (no sharp cut-off); inactive means mostly above about 56%. Many of the other results were omitted from the sample, so actives are more common in it than they were.
# output must be one of yes for active, no for inactive

Known results for compounds:
compound	label.class
O=C(Nc1noc2ccccc12)c1ccc(F)cc1	no
Cc1cccc(N2CCN(c3c4c(nc5nncn35)CCC4)CC2)c1C	no
Cc1nn2c3c(cnc2c1-c1ccc(Cl)cc1)C(=O)CC(c1ccc(C(C)C)cc1)C3 (stereo not drawn)	no
COc1cc(Cl)c(C)cc1NC(=O)c1nn(-c2ccc(C)cc2)c(=O)n(C)c1=O	no
CCCOc1ccc(Nc2cc(C)nc(C)n2)cc1	no

Outcome? Cc1c(C(=O)OCc2ccccc2)[nH]c2c1C(=O)CC(c1ccc(Cl)cc1)C2 (stereo not drawn)
no

Consider next the compound CCOC(=O)c1ccccc1NC(=O)Cn1c(=O)n(Cc2ccccc2)c(=O)c2c(C)c(C)sc21 in the same way.
no

Proceed to Cc1ccc(NC(=O)N2CCN(c3cc(-c4noc(C)n4)ccc3C)CC2)c(F)c1
yes

###

System: Wild type
procedure.text: S. aureus survival, RN4220 and DeltatarO strains – OD600, teichoic acid synthesis inhibitors, primary screen (AID 463173)
measurement.parameters: S. aureus RN4220 wild type/DeltatarO growth, OD600, 18 h, stronger effect = lower value, screened at 18.75 µg/mL (by protocol)
In all, about 52,000 compounds went through this assay and about 1,700 (3.3%) were called active. What follows is part of a selection rich in actives, with near analogues and random picks from the rest.
measured.attribute: survival (%)
Give just the number in %; leave the unit off.

O=C(Cn1nc(Cc2cccnc2)c2ccccc2c1=O)N1CCN(c2ccc(F)cc2)CC1 89
O=C(Nc1ccc(O)c(-c2nc3ccccc3o2)c1)c1ccc(Br)cc1 88

Now take the following compound into account.
Param item = O=C(NCC12CC3CC(CC(C3)C1)C2)c1cc2nc(-c3ccc(Cl)cc3)cc(C(F)(F)F)n2n1 ; retrieve measured survival.
60

###

Here the recorded survival is given for each entry.
Test system: Wild type
procedure.text: S. aureus survival, RN4220 and DeltatarO strains – OD600, teichoic acid synthesis inhibitors, primary screen (AID 463173)
measurement.parameters: S. aureus RN4220 wild type/DeltatarO growth, OD600, 18 h, stronger effect = lower value, screened at 18.75 µg/mL (by protocol)
About 1,700 (3.3%) of roughly 52,000 compounds were called active. This excerpt belongs to a sample that is enriched for actives.

Examples with answers:
Cc1ccc(S(=O)(=O)c2nc(-c3ccc(F)cc3)oc2N2CCN(c3ccccc3)CC2)cc1 115% (inactive)
Cc1ccc(S(=O)(=O)c2nc(-c3ccc(Cl)cc3)oc2N2CCCCCC2)cc1 30% (inactive)
Cc1ccc(S(=O)(=O)c2nc(-c3ccccc3F)oc2N2CCCCC2)cc1 17% (active)

Any idea what its survival is? The molecule is CC(=O)Nc1ccc(C(=O)Nc2ccc3c(c2)N(C2CCCC2)C(=O)c2ccccc2S3)cc1
-6% (active)

Repeat for the following molecule: O=S(=O)(c1ccccc1)c1nc(-c2ccc(Cl)cc2Cl)oc1N1CCCCC1
57% (inactive)

###

Each record here notes measured survival.
Test system: Wild type
procedure.text: S. aureus survival, RN4220 and DeltatarO strains – OD600, teichoic acid synthesis inhibitors, primary screen (AID 463173)
measurement.parameters: S. aureus RN4220 wild type/DeltatarO growth, OD600, 18 h, stronger effect = lower value, screened at 18.75 µg/mL (by protocol)
Screen size: about 52,000 compounds; about 1,700 (3.3%) were called active. Only a selection was taken, and actives are over-represented in it overall.
Write it as a number; the unit % goes unstated.

# count of solved cases: 10
compound	assay.target	survival [%]
Cc1ccc(C)c(N2CCN(c3nc4ccccc4c4nc(-c5cccnc5)nn34)CC2)c1	Wild type	82
Cc1ccccc1Cn1c(C)c(CNCCCc2ccccc2)c(C(=O)O)c1C	Wild type	98
Cc1ccccc1C(=O)NC1CCN(CC(=O)NC2CCCCC2)CC1	Wild type	98
CCOC(=O)C1C(=O)N(C(=O)c2cncc(Br)c2)CC1c1ccccc1 (stereo not given)	Wild type	112
CCOC(=O)c1cnc(NCc2ccc(OC)cc2OC)c2ccccc12	Wild type	117
O=S(=O)(NCCc1csc2nc(-c3ccc(Cl)cc3)nn12)c1cccs1	Wild type	72
CC(C)CCNC(=O)c1ccc2c(c1)N(Cc1cccc(Cl)c1)C(=O)c1ccccc1S2	Wild type	70
O=S(=O)(NCCc1csc2nc(-c3ccccc3)nn12)c1cccs1	Wild type	81
COc1cc(OC)c(Nc2c3c(nc4nc(-c5cccs5)nn24)CCCC3)cc1Cl	Wild type	85
CCOC(=O)c1ccc(NC(=O)c2ccc(-c3cccc(Cl)c3C)o2)cc1	Wild type	59

// next entry
Record CCOc1ccc(NC(=O)c2ccc(-c3cccc(Cl)c3C)o2)cc1 : what is its survival with Wild type?
66

###

System: Wild type
procedure.text: S. aureus survival, RN4220 and DeltatarO strains – OD600, teichoic acid synthesis inhibitors, primary screen (AID 463173)
measurement.parameters: S. aureus RN4220 wild type/DeltatarO growth, OD600, 18 h, stronger effect = lower value, screened at 18.75 µg/mL (by protocol)
The whole screen tested about 52,000 compounds, of which about 1,700 (3.3%) were called active. Only a selection was taken, and actives are over-represented in it overall.
measured.attribute: survival

# example entries with known answers
compound	assay.target	survival
COCCCNC(=O)c1ccc(Cn2c(=O)c3ccccc3n(CC(=O)Nc3ccc(C)cc3C)c2=O)cc1	Wild type	100% (inactive)
CCOC(=O)c1cc(-c2ccc(OC)cc2)nn1Cc1ccccc1	Wild type	10% (active)
CCOC(=O)c1cnc2c(ccc3ccccc32)c1Nc1ccccc1O	Wild type	74% (inactive)
CCOc1ccc(NC(=O)C2CCN(S(=O)(=O)c3c(C)noc3/C=C/c3ccco3)CC2)cc1	Wild type	73% (inactive)
CCOC(=O)c1cc(-c2ccccc2)nn1Cc1ccccc1	Wild type	2% (active)

Param item = CCOC(=O)c1cnc2c(ccc3ccccc32)c1Nc1ccc(OC)c(OC)c1 ; retrieve measured survival.
5% (active)

Here is the next compound: CCCCc1nc2ccccc2n2c(-c3ccc(OC)cc3)c3c(=O)n(C)c(=O)n(C)c3c12
52% (inactive)

Item: CCc1cccc(C)c1NC(=O)c1cc(S(=O)(=O)N2CCN(c3ccccc3)CC2)ccc1F
73% (inactive)

###

System: Wild type
procedure.text: S. aureus survival, RN4220 and DeltatarO strains – OD600, teichoic acid synthesis inhibitors, primary screen (AID 463173)
measurement.parameters: S. aureus RN4220 wild type/DeltatarO growth, OD600, 18 h, screened at 18.75 µg/mL (by protocol)
The campaign covered roughly 52,000 compounds. About 1,700 (3.3%) were called active. Cut-off read from the data, not from the text of the source: active = survival mostly below about 52% (no sharp cut-off); inactive = mostly above about 56%. Many of the other results were omitted from the sample, so actives are more common in it than they were.
API: response.call in active, inactive

compound	label.class
Cc1ccc(-n2ncc3c(NC(C)c4ccccc4)ncnc32)cc1 (stereo not given)	inactive
CCN1CCOC(=O)C1CC(=O)Nc1ccc(Br)cc1 (stereo not given)	inactive
Cc1cc(C)c(Cn2c(C(O)c3ccccc3)nc3ccccc32)c(C)c1 (stereo not given)	active
CCOC(=O)C1CCCN(S(=O)(=O)c2ccc3[nH]c(=O)oc3c2)C1 (stereo not given)	inactive
COc1cc(NS(=O)(=O)c2cc3c(cc2C)n(C)c(=O)c(=O)n3C)cc(OC)c1	inactive
COc1ccc(-c2noc(CN(C(=O)C(C)Oc3ccc(C)cc3)C(C)C)n2)cc1 (stereo not given)	inactive
CCOC(=O)C1=C(CN2CCN(c3ccccc3)CC2)NC(=O)NC1c1ccc(C)cc1 (stereo not given)	inactive
CCn1c(SCC(=O)OC2CCCCC2)nnc1-c1ccc(OC)cc1	inactive
CCn1c(SCC#N)nnc1-c1ccc(S(=O)(=O)N2CCCC2)cc1	inactive
CC(C)c1ccc(C2=CC(c3cccc(Cl)c3)n3c(nc4ccccc43)N2)cc1 (stereo not given)	inactive

Please indicate how the test categorized COc1ccc(OC)c(S(=O)(=O)NCCc2csc(-c3cccc(F)c3)n2)c1 .
inactive

Consider next the compound O=C(CCc1nc2cccnc2n1Cc1cccs1)Nc1cccc(C(F)(F)F)c1 in the same way.
inactive

CCC(C)Nc1ncnc2c1cnn2-c1ccc(F)cc1 (stereo not given) ?
inactive

Ok, now COc1ccc(CC(=O)N(Cc2nc(-c3ccc(C)cc3)no2)C(C)C)cc1
inactive

Also check O=C(CSc1nnc(-c2ccccc2)o1)N1CCCc2ccccc21
inactive

Follow-up entry: Cc1ccc(-n2ncc3c(NCCC4=CCCCC4)ncnc32)cc1C
inactive
